Here, each record is paired with measured pIC50 data.
# studySystem: ULK1 (Homo sapiens (Human))
# Sequence (O75385 whole entry, species assumed): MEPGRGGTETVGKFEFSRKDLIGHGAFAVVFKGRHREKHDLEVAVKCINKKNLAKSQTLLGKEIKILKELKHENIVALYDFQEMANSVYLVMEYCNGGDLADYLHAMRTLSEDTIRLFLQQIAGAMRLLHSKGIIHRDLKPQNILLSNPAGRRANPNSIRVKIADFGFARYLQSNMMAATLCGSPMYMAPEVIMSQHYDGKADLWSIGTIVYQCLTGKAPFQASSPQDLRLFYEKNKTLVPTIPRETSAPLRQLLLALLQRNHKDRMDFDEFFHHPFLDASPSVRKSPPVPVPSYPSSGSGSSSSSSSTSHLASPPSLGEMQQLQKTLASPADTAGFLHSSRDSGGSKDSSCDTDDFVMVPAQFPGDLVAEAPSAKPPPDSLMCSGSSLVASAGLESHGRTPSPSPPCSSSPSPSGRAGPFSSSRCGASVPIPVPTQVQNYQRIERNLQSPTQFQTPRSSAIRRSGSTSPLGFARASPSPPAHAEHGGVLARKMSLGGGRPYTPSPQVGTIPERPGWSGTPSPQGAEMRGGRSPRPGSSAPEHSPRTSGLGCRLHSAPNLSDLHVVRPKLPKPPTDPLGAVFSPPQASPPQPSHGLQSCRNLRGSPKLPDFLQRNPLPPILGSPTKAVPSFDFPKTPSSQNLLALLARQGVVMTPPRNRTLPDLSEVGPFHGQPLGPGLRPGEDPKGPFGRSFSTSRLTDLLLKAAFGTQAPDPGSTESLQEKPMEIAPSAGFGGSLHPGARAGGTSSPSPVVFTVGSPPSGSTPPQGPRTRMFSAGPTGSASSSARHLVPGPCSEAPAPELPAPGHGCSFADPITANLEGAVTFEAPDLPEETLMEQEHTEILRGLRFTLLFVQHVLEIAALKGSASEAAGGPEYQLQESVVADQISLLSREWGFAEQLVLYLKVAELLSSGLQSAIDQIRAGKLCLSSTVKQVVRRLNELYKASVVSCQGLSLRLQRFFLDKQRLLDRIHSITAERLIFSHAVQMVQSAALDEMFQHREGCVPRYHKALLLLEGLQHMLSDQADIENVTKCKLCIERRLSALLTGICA
# protocolSummary: ULK1 inhibition assay (Table 1)
# Assay type: biochemical
# condition: * = tested as a mixture of regioisomers
pIC50: −log10 of the molar value.

Known pIC50 results, listed for orientation:
molecule | studySystem | pIC50
COc1ccc(C)c(Nc2ncc(Cl)c(Nc3nccc(C)n3)n2)c1 | ULK1 (Homo sapiens (Human)) | < 5.70
COc1ccc(Nc2nc(Nc3ccc4c(c3)CCC(=O)N4)ncc2Br)cn1 | ULK1 (Homo sapiens (Human)) | > 6.70
COc1cc(Nc2ncc(Br)c(N(C)C(=O)c3ccccc3O)n2)cc(OC)c1OC [171b] | ULK1 (Homo sapiens (Human)) | > 6.70
O=C1CCc2cc(Nc3ncc(C(F)(F)F)c(NC4Cc5ccccc5C4)n3)ccc2N1 [130a] | ULK1 (Homo sapiens (Human)) | > 6.70
Cc1cccc(Oc2nc(Nc3ccc4c(c3)CCC(=O)N4)ncc2C(F)(F)F)c1C | ULK1 (Homo sapiens (Human)) | > 6.70
COc1cccc(Nc2nc(Nc3ccc4c(c3)CCC(=O)N4)ncc2Cl)c1 [143a] | ULK1 (Homo sapiens (Human)) | > 6.70
O=C1CCc2cc(Nc3ncc(C(F)(F)F)c(OC4Cc5ccccc5C4)n3)ccc2N1 [180a] | ULK1 (Homo sapiens (Human)) | > 6.70
CNC(=O)c1ccccc1Nc1nc(Nc2ccc3[nH]ccc3c2)ncc1Br | ULK1 (Homo sapiens (Human)) | > 6.70
O=C1CCc2cc(Nc3ncc(C(F)(F)F)c(OC4CCC4)n3)ccc2N1 | ULK1 (Homo sapiens (Human)) | > 6.70
CNC(=O)c1ccccc1Oc1nc(Nc2ccc(OC)cc2)ncc1C(F)(F)F [105a] | ULK1 (Homo sapiens (Human)) | < 5.70

Would you mind telling me what pIC50 value was observed for COc1ccc(Nc2nc(Nc3ccc4[nH]ccc4c3)ncc2Cl)cn1 ?
5.70 to 6.70

Would you mind telling me what pIC50 value was observed for CNC(=O)c1ccccc1Nc1nc(Nc2cc(OC)c(OC)c(OC)c2)ncc1Cl ?
> 6.70

Would you mind telling me what pIC50 value was observed for CNC(=O)c1ccccc1Nc1nc(Nc2ccc3c(c2)CCC(=O)N3)ncc1-c1ccccc1 ?
> 6.70

Would you mind telling me what pIC50 value was observed for COc1cc(Nc2ncc(Br)c(Nc3ccccn3)n2)cc(OC)c1OC ?
> 6.70

Would you mind telling me what pIC50 value was observed for CNC(=O)c1ccccc1Nc1nc(Nc2cc(OC)c(OC)c(OC)c2)ncc1-c1ccccc1 ?
> 6.70
